Values from ChEMBL document CHEMBL4715741

- study-system: Cathepsin B (Homo sapiens)
- assay-details: Inhibition of cathepsin B (unknown origin) using RR-AMC as substrate preincubated for 30 mins followed by substrate addition and further incubated for 30 mins under shaking condition by fluorescence assay
IC50 values for the molecules below.

>  <molecule>
O=C(/C=C/c1ccc(O)c2ccccc12)c1cccs1

>  <study-system>
Cathepsin B (Homo sapiens)

>  <comparison-sign>
>

>  <IC50 [µM]>
50

$$$$
>  <molecule>
CCOC(=O)[C@H]1O[C@@H]1C(=O)N[C@@H](CC(C)C)C(=O)NCCC(C)C [ALOXISTATIN]

>  <study-system>
Cathepsin B (Homo sapiens)

>  <comparison-sign>
=

>  <IC50 [µM]>
14.4

$$$$
>  <molecule>
COc1ccc(/C=C/C(=O)c2ccc(O)cc2)c2ccccc12

>  <study-system>
Cathepsin B (Homo sapiens)

>  <comparison-sign>
=

>  <IC50 [µM]>
14.5

$$$$
>  <molecule>
CCCC[C@@H](C=O)NC(=O)[C@H](CC(C)C)NC(=O)OCc1ccccc1 [CALPEPTIN]

>  <study-system>
Cathepsin B (Homo sapiens)

>  <comparison-sign>
>

>  <IC50 [µM]>
100

$$$$
>  <molecule>
COc1ccccc1/C=C/C=C/C(=O)c1cccnc1

>  <study-system>
Cathepsin B (Homo sapiens)

>  <comparison-sign>
=

>  <IC50 [µM]>
33.3

$$$$
>  <molecule>
O=C(/C=C/c1ccc(O)c2ccccc12)c1ccco1

>  <study-system>
Cathepsin B (Homo sapiens)

>  <comparison-sign>
>

>  <IC50 [µM]>
50

$$$$
>  <molecule>
O=C(/C=C/c1ccc(O)c2ccccc12)c1ccc(O)cc1O

>  <study-system>
Cathepsin B (Homo sapiens)

>  <comparison-sign>
=

>  <IC50 [µM]>
6.34

$$$$
>  <molecule>
COc1cc(O)ccc1C(=O)/C=C/c1ccc(O)c2ccccc12

>  <study-system>
Cathepsin B (Homo sapiens)

>  <comparison-sign>
=

>  <IC50 [µM]>
15.6

$$$$
>  <molecule>
O=C(/C=C/c1ccc(O)c2ccccc12)c1ccc(O)cc1

>  <study-system>
Cathepsin B (Homo sapiens)

>  <comparison-sign>
=

>  <IC50 [µM]>
14.8

$$$$
>  <molecule>
CCOc1cc(O)ccc1C(=O)/C=C/C=C/c1ccccc1OC

>  <study-system>
Cathepsin B (Homo sapiens)

>  <comparison-sign>
=

>  <IC50 [µM]>
13.9

$$$$
>  <molecule>
COc1cc(/C=C/C=C/C(=O)c2ccc(O)cc2)ccc1O

>  <study-system>
Cathepsin B (Homo sapiens)

>  <comparison-sign>
=

>  <IC50 [µM]>
11.1

$$$$
>  <molecule>
COc1ccccc1/C=C/C=C/C(=O)c1ccc(O)cc1

>  <study-system>
Cathepsin B (Homo sapiens)

>  <comparison-sign>
=

>  <IC50 [µM]>
33.1

$$$$
>  <molecule>
COc1ccc(/C=C/C(=O)/C=C/c2ccc(O)cc2OC)cc1

>  <study-system>
Cathepsin B (Homo sapiens)

>  <comparison-sign>
=

>  <IC50 [µM]>
37.8

$$$$
